The measured values listed here are drawn from the supplement of paper PMC4022240.

- assayed.target: T1, HaloTag-ATRX ADD domain (163-292)
- T1 chain: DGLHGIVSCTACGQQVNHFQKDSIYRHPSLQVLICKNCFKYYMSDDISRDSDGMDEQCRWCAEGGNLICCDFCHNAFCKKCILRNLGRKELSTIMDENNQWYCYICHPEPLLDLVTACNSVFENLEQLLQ
- assay.method.text: peptide microarray binding signal (635 nm), min-max normalized on array (fraction of array maximum); higher = stronger binding
- experimental.parameters: peptide region: Unmod H4 variant; binder concentration: 50 nM
Entry flag: 1.0 if peptide microarray binding signal reaches 0.01; 0.0 if it does not.

Answered cases to consult:
ISGLIYEETRGVL [Unmod H4 variant I S G L I Y E E T R G V L]
0.0
GGKGLGKGGAKRH [Unmod H4 variant G G K G L G K G G A K R H]
0.0
TYTEHAKRKTVTA [Unmod H4 variant T Y T E H A K R K T V T A]
1.0
VLRDNIQGITKPA [Unmod H4 variant V L R D N I Q G I T K P A]
1.0
AKRKTVTAMDVVY [Unmod H4 variant A K R K T V T A M D V V Y]
0.0

[in] Tell me whether peptide microarray binding signal is at least 0.01 here: FLENVIRDAVTYT [Unmod H4 variant F L E N V I R D A V T Y T]
[out] 1.0

[in] Tell me whether peptide microarray binding signal is at least 0.01 here: SGRGKGGKGLGKG [Unmod H4 variant S G R G K G G K G L G K G]
[out] 0.0

[in] Tell me whether peptide microarray binding signal is at least 0.01 here: IRDAVTYTEHAKR [Unmod H4 variant I R D A V T Y T E H A K R]
[out] 1.0
